Every entry's value here was drawn from paper PMC3700073.

Please respond with reported IC50 at 72 h for every item in the list.
# Protocol Text: Cytotoxicity in VERO cells (MTT)
# Test Parameters: African green monkey

- Compound: "NNC(=O)c1ccncc1 [Isoniazid, isoniazid, reference compound]"
  IC50 at 72 h: "> 6 µg/mL"

Kindly review the next compound as well.
Which measured IC50 at 72 h value corresponds to CO[C@H]1/C=C/O[C@@]2(C)Oc3c(C)c(O)c4c(O)c(c(/C=N/N5CCN(C)CC5)c(O)c4c3C2=O)NC(=O)/C(C)=C\C=C\[C@H](C)[C@H](O)[C@@H](C)[C@@H](O)[C@@H](C)[C@H](OC(C)=O)[C@@H]1C [Rifampin, reference compound] ?
> 6 µg/mL
